Data origin, for the record: PubChem BioAssay (NCI)

Consider the following molecules; for each one, report its growth.
- Test system: MDA-MB-435 melanoma
- Test Description: NCI-60 one-dose screen, 48 h (100 = growth as untreated, 0 = no growth, -100 = all killed)
- Study Conditions: 10 µM unless noted
This is part of a sample that, as a whole, favours compounds with a hit. Of some 83,000 tested, about 20% had one in any assay.
Give the value in % but do not write % after it.

Consider the molecule shown here: COC(=O)c1cc2c(n1Cc1ccccc1)-c1oncc1CCC2 What is its recorded growth?
-13

Consider the molecule shown here: CCCCCCc1cc2cc(-c3csc(/C=C/c4ccccc4)n3)c(=O)oc2cc1O What is its recorded growth?
-72.2

Consider the molecule shown here: O=C(c1ccccc1)N(C(=S)NCCc1ccc(Cl)cc1)c1ccccc1 What is its recorded growth?
84

Consider the molecule shown here: CC1=C(C(=O)OCC2CCN(C(=O)OC(C)(C)C)CC2)[C@H](c2cccc(Br)c2)C2=C(CC(C)(C)CC2=O)N1 What is its recorded growth?
24.9

Consider the molecule shown here: Cc1cc(OC(=O)c2ccc([N+](=O)[O-])cc2)nc2[nH]c(=O)sc12 What is its recorded growth?
108

Consider the molecule shown here: CCOC(=O)c1ccc(N=Cc2sc(=O)[nH]c2O)cc1 What is its recorded growth?
103
